All values here come from patent US20200216495A1.

Please go through the items and note down their IC50, Tau40 assay (ThT).
- Assay system: Tau40 P301L protein (human)
- Method description: cell-based or functional assay
Square brackets hold non-standard residues; d marks the D form. Ends that are not written are not given here.
Number first, unit second.

Batch request: IC50, Tau40 assay (ThT) per item, same order as input.
1. [dR][dL][dR][dI][dH][dW][dW] [rlrihww (PEPTIDE ID NO: 164)]
2. [dL][dK][dI][dR][dI][dA][dY][dH] [lkiriayh (PEPTIDE ID NO: 303)]
3. [dW][dR][dL][dA][dV][dR][dW] [wrlavrw (PEPTIDE ID NO: 301)]

2.05 µM
2.03 µM
1.94 µM
